- Experiment description: Cytotoxicity, Blue Cell Viability assay
- Conditions: human, human dermal fibroblasts
- Method: Human dermal fibroblasts, human epidermal keratinocytes (HaCaT), and THP1 human monocytes were used to evaluate the cytotoxic effects of EO-based compounds. […] The cytotoxicity was determined by measuring cell metabolism through the Blue Cell Viability assay. […] Control samples (not treated and chlorhexidine treated) were also analyzed. […] Cell viability was determined by interpolation of the emission data obtained from the treated samples and the control samples (not treated cells, 100% viability).

Compound: [H]/N=C(\N/C(=N/[H])NCCCCCCNC(=N)NC(=N)Nc1ccc(Cl)cc1)Nc1ccc(Cl)cc1 [chlorhexidine, reference compound]
viability at 24 h, 0.004 mg/mL: > 70%

* * *

Quick reference for MBC among some compounds
- System: S. aureus ATCC 25923
- Experiment description: MIC and MBC determination, broth microdilution method
- Assay type: cell-based
- Conditions: Staphylococcus aureus, ATCC25923; S. aureus; 24 h, 37 °C; average of 12 replicas; read-out: MBC

Smi: O=C(/C=C/c1ccc(O)c(O)c1)O[C@H](Cc1ccc(O)c(O)c1)C(=O)O
MBC: 4000 µg/mL
--
Smi: Cc1ccc(C(C)C)c(O)c1
MBC: 300 µg/mL
--
Smi: O=C/C=C/c1ccccc1
MBC: 500 µg/mL
--
Smi: C=CCc1ccc(O)c(OC)c1
MBC: 1500 µg/mL
--
Smi: C=C1CC/C=C(\C)CC[C@@H]2[C@@H]1CC2(C)C
MBC: > 4000 µg/mL
--
Smi: CC(C)=CCC/C(C)=C/CC/C(C)=C/CC/C=C(\C)CC/C=C(\C)CCC=C(C)C
MBC: > 4000 µg/mL
